system: K86415-001-R-J1-PDC complex spheroids, viability; assay: Anticancer human tumor K86415-001-R-J1-PDC patient-derived lung adenocarcinoma cell line growth inhibition [RAS]; conditions: second compound 0.03 µM; first compound 0.01 µM; active = viability on the fitted dose curve at most 10% of control; inactive = the rest
Outcomes: TRUE for active, FALSE for inactive

{"columns": ["Compound", "Target Or Test System", "Category"],
 "data": [
  ["C=CC(=O)Nc1cc(Nc2nccc(-c3cn(C)c4ccccc34)n2)c(OC)cc1N(C)CCN(C)C + CCn1c(-c2cccnc2C(C)OC)c2c3cc(ccc31)N1CCOC(CC(NC(=O)C(C(C)C)N(C)C(=O)C3(F)CCN(C(=O)C#CC(C)(C)N(C)C)CC3)C(=O)N3CCCC(N3)C(=O)OCC(C)(C)C2)C1", "K86415-001-R-J1-PDC complex spheroids, viability", "FALSE"],
  ["Nc1ccn(C2OC(CO)C(O)C2(F)F)c(=O)n1 (stereo not drawn) + CCn1c(-c2cc(N3CCN(C)CC3)cnc2C(C)OC)c2c3cc(ccc31)-c1csc(n1)CC(NC(=O)C1CC1C)C(=O)N1CCCC(N1)C(=O)OCC(C)(C)C2", "K86415-001-R-J1-PDC complex spheroids, viability", "TRUE"],
  ["CCN1CCN(Cc2ccc(Nc3ncc(F)c(-c4cc(F)c5nc(C)n(C(C)C)c5c4)n3)nc2)CC1 + CCn1c(-c2cccnc2C(C)OC)c2c3cc(ccc31)N1CCOC(CC(NC(=O)C(C(C)C)N(C)C(=O)C3(F)CCN(C(=O)C#CC(C)(C)N(C)C)CC3)C(=O)N3CCCC(N3)C(=O)OCC(C)(C)C2)C1", "K86415-001-R-J1-PDC complex spheroids, viability", "FALSE"],
  ["CC(C)n1nc(-c2ccc3oc(N)nc3c2)c2c(N)ncnc21 + CCn1c(-c2cc(N3CCN(C)CC3)cnc2C(C)OC)c2c3cc(ccc31)-c1csc(n1)CC(NC(=O)C1CC1C)C(=O)N1CCCC(N1)C(=O)OCC(C)(C)C2", "K86415-001-R-J1-PDC complex spheroids, viability", "TRUE"],
  ["O=C(c1ccc(F)c(F)c1Nc1ccc(I)cc1F)N1CC(O)([C@@H]2CCCCN2)C1 + CCn1c(-c2cc(N3CCN(C)CC3)cnc2C(C)OC)c2c3cc(ccc31)-c1csc(n1)CC(NC(=O)C1CC1C)C(=O)N1CCCC(N1)C(=O)OCC(C)(C)C2", "K86415-001-R-J1-PDC complex spheroids, viability", "TRUE"],
  ["C=CC(=O)Nc1cc(Nc2nccc(-c3cn(C)c4ccccc34)n2)c(OC)cc1N(C)CCN(C)C + CCn1c(-c2cc(N3CCN(C)CC3)cnc2C(C)OC)c2c3cc(ccc31)-c1csc(n1)CC(NC(=O)C1CC1C)C(=O)N1CCCC(N1)C(=O)OCC(C)(C)C2", "K86415-001-R-J1-PDC complex spheroids, viability", "TRUE"],
  ["CCN1CCN(Cc2ccc(Nc3ncc(F)c(-c4cc(F)c5nc(C)n(C(C)C)c5c4)n3)nc2)CC1 + CCn1c(-c2cc(N3CCN(C)CC3)cnc2C(C)OC)c2c3cc(ccc31)-c1csc(n1)CC(NC(=O)C1CC1C)C(=O)N1CCCC(N1)C(=O)OCC(C)(C)C2", "K86415-001-R-J1-PDC complex spheroids, viability", "TRUE"],
  ["O=C(c1ccc(F)c(F)c1Nc1ccc(I)cc1F)N1CC(O)([C@@H]2CCCCN2)C1 + CCn1c(-c2cccnc2C(C)OC)c2c3cc(ccc31)N1CCOC(CC(NC(=O)C(C(C)C)N(C)C(=O)C3(F)CCN(C(=O)C#CC(C)(C)N(C)C)CC3)C(=O)N3CCCC(N3)C(=O)OCC(C)(C)C2)C1", "K86415-001-R-J1-PDC complex spheroids, viability", "FALSE"]
]}

###

tested on: K86415-001-R-J1-PDC complex spheroids, viability; assay: Anticancer human tumor K86415-001-R-J1-PDC cell line growth inhibition [RAS]; conditions: second compound 0.0316 µM; first compound 0.1 µM; hits give low values;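 note: spheroids exposed to agents for seven days before readout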
Criterion: viability, T/C strictly less than 90%. Met: true. Not met: false.

{"columns": ["Compound", "Category"],
 "data": [
  ["Nc1ccn(C2OC(CO)C(O)C2(F)F)c(=O)n1 (stereo not given) + C=CC(=O)N1CCN(c2nc(OCC3CCCN3C)nc3c(F)c(-c4nc(N)cc(C)c4C(F)(F)F)c(Cl)cc23)C(C)C1", "true"],
  ["CC(C)NCC(C(=O)N1CCN(c2ncnc3c2C(C)CC3O)CC1)c1ccc(Cl)cc1 (stereo not given) + C=CC(=O)N1CCN(c2nc(OCC3CCCN3C)nc3c(F)c(-c4nc(N)cc(C)c4C(F)(F)F)c(Cl)cc23)C(C)C1", "true"],
  ["CC(Nc1ccc2c(c1)OCCn1cc(N3C(=O)OCC3C(F)F)nc1-2)C(N)=O (stereo not given) + C#Cc1c(F)ccc2cc(O)cc(-c3ncc4c(N5CC6CCC(C5)N6)nc(OCC56CCCN5CC(F)C6)nc4c3F)c12", "false"],
  ["CC(C)n1nc(-c2ccc3oc(N)nc3c2)c2c(N)ncnc21 + C=CC(=O)N1CCN(c2nc(OCC3CCCN3C)nc3c(F)c(-c4nc(N)cc(C)c4C(F)(F)F)c(Cl)cc23)C(C)C1", "true"],
  ["CC(C)NCC(C(=O)N1CCN(c2ncnc3c2C(C)CC3O)CC1)c1ccc(Cl)cc1 (stereo not given) + C#Cc1c(F)ccc2cc(O)cc(-c3ncc4c(N5CC6CCC(C5)N6)nc(OCC56CCCN5CC(F)C6)nc4c3F)c12", "false"]
]}

###

test system: K86415-001-R-J1-PDC complex spheroids, viability; assay: Anticancer human tumor K86415-001-R-J1-PDC cell line growth inhibition [RAS]; settings: second compound 0.0316 µM; first compound 1 µM; hits give low values;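 note: spheroids exposed to agents for seven days before readout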

{"columns": ["Compound", "Display Unit", "viability, T/C"],
 "data": [
  ["CC(Nc1ccc2c(c1)OCCn1cc(N3C(=O)OCC3C(F)F)nc1-2)C(N)=O (centres undefined) + C#Cc1c(F)ccc2cc(O)cc(-c3ncc4c(N5CC6CCC(C5)N6)nc(OCC56CCCN5CC(F)C6)nc4c3F)c12", "%", 50.1],
  ["CC1(O)CCCC1n1c(=O)c(C(F)F)cc2cnc(NC3CCN(S(C)(=O)=O)CC3)nc21 (centres undefined) + C=CC(=O)N1CCN(c2nc(OCC3CCCN3C)nc3c(F)c(-c4nc(N)cc(C)c4C(F)(F)F)c(Cl)cc23)C(C)C1", "%", 14.8],
  ["CC(C)NCC(C(=O)N1CCN(c2ncnc3c2C(C)CC3O)CC1)c1ccc(Cl)cc1 (centres undefined) + C#Cc1c(F)ccc2cc(O)cc(-c3ncc4c(N5CC6CCC(C5)N6)nc(OCC56CCCN5CC(F)C6)nc4c3F)c12", "%", 89.6],
  ["NC1c2ccccc2OC12CCN(c1cnc3c(N4CCCc5ncccc54)n[nH]c3n1)CC2 (centres undefined) + C#Cc1c(F)ccc2cc(O)cc(-c3ncc4c(N5CC6CCC(C5)N6)nc(OCC56CCCN5CC(F)C6)nc4c3F)c12", "%", 14.8],
  ["O=C(c1ccc(F)c(F)c1Nc1ccc(I)cc1F)N1CC(O)([C@@H]2CCCCN2)C1 + C=CC(=O)N1CCN(c2nc(OCC3CCCN3C)nc3c(F)c(-c4nc(N)cc(C)c4C(F)(F)F)c(Cl)cc23)C(C)C1", "%", 2.39],
  ["CCC(CC)c1cc(NC2CCC(N)C2)n2nccc2n1 (centres undefined) + C#Cc1c(F)ccc2cc(O)cc(-c3ncc4c(N5CC6CCC(C5)N6)nc(OCC56CCCN5CC(F)C6)nc4c3F)c12", "%", 98.1],
  ["CCN1CCN(Cc2ccc(Nc3ncc(F)c(-c4cc(F)c5nc(C)n(C(C)C)c5c4)n3)nc2)CC1 + C#Cc1c(F)ccc2cc(O)cc(-c3ncc4c(N5CC6CCC(C5)N6)nc(OCC56CCCN5CC(F)C6)nc4c3F)c12", "%", 67.4],
  ["C[C@@H](NC(=O)c1ncnc(N)c1Cl)c1ncc(C(=O)Nc2cc(C(F)(F)F)c(Cl)cn2)s1 + C#Cc1c(F)ccc2cc(O)cc(-c3ncc4c(N5CC6CCC(C5)N6)nc(OCC56CCCN5CC(F)C6)nc4c3F)c12", "%", 81.1],
  ["Cc1nc(N2CCC3(CC2)COC(C)C3N)c(CO)nc1Sc1ccnc(N)c1Cl (centres undefined) + C#Cc1c(F)ccc2cc(O)cc(-c3ncc4c(N5CC6CCC(C5)N6)nc(OCC56CCCN5CC(F)C6)nc4c3F)c12", "%", 22.3],
  ["Cc1nc(N2CCC3(CC2)COC(C)C3N)c(CO)nc1Sc1ccnc(N)c1Cl (centres undefined) + C=CC(=O)N1CCN(c2nc(OCC3CCCN3C)nc3c(F)c(-c4nc(N)cc(C)c4C(F)(F)F)c(Cl)cc23)C(C)C1", "%", 3.81],
  ["CC(=O)OC12COC1CC(O)C1(C)C(=O)C(O)C3=C(C)C(OC(=O)C(O)C(NC(=O)OC(C)(C)C)c4ccccc4)CC(O)(C(OC(=O)c4ccccc4)C21)C3(C)C (centres undefined) + C#Cc1c(F)ccc2cc(O)cc(-c3ncc4c(N5CC6CCC(C5)N6)nc(OCC56CCCN5CC(F)C6)nc4c3F)c12", "%", 30.9],
  ["Nc1ccn(C2OC(CO)C(O)C2(F)F)c(=O)n1 (centres undefined) + C#Cc1c(F)ccc2cc(O)cc(-c3ncc4c(N5CC6CCC(C5)N6)nc(OCC56CCCN5CC(F)C6)nc4c3F)c12", "%", 21.6],
  ["CC1(O)CCCC1n1c(=O)c(C(F)F)cc2cnc(NC3CCN(S(C)(=O)=O)CC3)nc21 (centres undefined) + C#Cc1c(F)ccc2cc(O)cc(-c3ncc4c(N5CC6CCC(C5)N6)nc(OCC56CCCN5CC(F)C6)nc4c3F)c12", "%", 79.4],
  ["C[C@@H](NC(=O)c1ncnc(N)c1Cl)c1ncc(C(=O)Nc2cc(C(F)(F)F)c(Cl)cn2)s1 + C=CC(=O)N1CCN(c2nc(OCC3CCCN3C)nc3c(F)c(-c4nc(N)cc(C)c4C(F)(F)F)c(Cl)cc23)C(C)C1", "%", 10.8],
  ["Nc1ccn(C2OC(CO)C(O)C2(F)F)c(=O)n1 (centres undefined) + C=CC(=O)N1CCN(c2nc(OCC3CCCN3C)nc3c(F)c(-c4nc(N)cc(C)c4C(F)(F)F)c(Cl)cc23)C(C)C1", "%", 10.4],
  ["CC(=O)OC12COC1CC(O)C1(C)C(=O)C(O)C3=C(C)C(OC(=O)C(O)C(NC(=O)OC(C)(C)C)c4ccccc4)CC(O)(C(OC(=O)c4ccccc4)C21)C3(C)C (centres undefined) + C=CC(=O)N1CCN(c2nc(OCC3CCCN3C)nc3c(F)c(-c4nc(N)cc(C)c4C(F)(F)F)c(Cl)cc23)C(C)C1", "%", 9.79],
  ["CC(C)NCC(C(=O)N1CCN(c2ncnc3c2C(C)CC3O)CC1)c1ccc(Cl)cc1 (centres undefined) + C=CC(=O)N1CCN(c2nc(OCC3CCCN3C)nc3c(F)c(-c4nc(N)cc(C)c4C(F)(F)F)c(Cl)cc23)C(C)C1", "%", 6.17],
  ["CCC(CC)c1cc(NC2CCC(N)C2)n2nccc2n1 (centres undefined) + C=CC(=O)N1CCN(c2nc(OCC3CCCN3C)nc3c(F)c(-c4nc(N)cc(C)c4C(F)(F)F)c(Cl)cc23)C(C)C1", "%", 15.9],
  ["O=C(c1ccc(F)c(F)c1Nc1ccc(I)cc1F)N1CC(O)([C@@H]2CCCCN2)C1 + C#Cc1c(F)ccc2cc(O)cc(-c3ncc4c(N5CC6CCC(C5)N6)nc(OCC56CCCN5CC(F)C6)nc4c3F)c12", "%", 8.49]
]}
